IC50 for assorted molecules
Biological target: Υ-glutamylcarboxylase
Experiment: Inhibition of carboxylase activity in salt-washed liver microsomes, bovine system
Format: biochemical
Details: cofactor K; mean of triplicate experiments with S.E.M.; read-out: I-50 (µm) in bovine system

# example entries with known answers
# smiles input, target entity, experimental result
records = [
    ("COC1=C(OC)C(=O)C(CC=C(C)CCC=C(C)CCC=C(C)CCC=C(C)CCC=C(C)CCC=C(C)CCC=C(C)CCC=C(C)CCC=C(C)CCC=C(C)C)=C(C)C1=O", "Υ-glutamylcarboxylase", "76 µM"),
    ("COC1=C(OC)C(=O)C(CC=C(C)CCC=C(C)CCC=C(C)CCC=C(C)CCC=C(C)CCC=C(C)CCC=C(C)CCC=C(C)CCC=C(C)C)=C(C)C1=O", "Υ-glutamylcarboxylase", "86 µM"),
]

Now turn to the next molecule.
Q. Tell us which IC50 value is on record for `CC(C)=CCC/C(C)=C/CC/C(C)=C/CC/C(C)=C/CC/C(C)=C/CC/C(C)=C/CC/C(C)=C/CC/C(C)=C/CC/C(C)=C/CC1=CC(=O)C(C)=C(C)C1=O`
A. 59 µM

====

Target: Υ-glutamylcarboxylase
Test: Inhibition of carboxylase activity in salt-washed liver microsomes, bovine system
Type: biochemical
Conditions: cofactor KO; mean of triplicate experiments with S.E.M.; read-out: I-50 (µm) in bovine system
IC50 for assorted compounds
Response body: numeric value in µM, unit text excluded.

# smiles input, target entity, IC50 [µM]
rows = [
    ("COC1=C(OC)C(=O)C(CC=C(C)CCC=C(C)CCC=C(C)CCC=C(C)CCC=C(C)CCC=C(C)CCC=C(C)CCC=C(C)CCC=C(C)C)=C(C)C1=O", "Υ-glutamylcarboxylase", 72),
    ("COC1=C(OC)C(=O)C(CC=C(C)CCC=C(C)CCC=C(C)CCC=C(C)CCC=C(C)CCC=C(C)CCC=C(C)CCC=C(C)CCC=C(C)CCC=C(C)C)=C(C)C1=O", "Υ-glutamylcarboxylase", 91),
]

Now turn to the next compound.
Q. Tell us which IC50 value is on record for `CC(C)=CCC/C(C)=C/CC/C(C)=C/CC/C(C)=C/CC/C(C)=C/CC/C(C)=C/CC/C(C)=C/CC/C(C)=C/CC/C(C)=C/CC1=CC(=O)C(C)=C(C)C1=O`
A. 41

These data points were gathered from patent EP1068805A1.
